- test_target: T1, human serum albumin (human, UniProt P02768 25-609)
- T1 construct: mature; Bought protein; biotinylated in the Octet and HTRF assays; also called HSA; HuSA
- test_protocol: binding ELISA, coated albumin, pH 7.4
measurement_label: EC50 (nM)
Answers are plain numbers, in nM.

Field: example entries. Status: answers known.
binder="HSA-31 (designed binder) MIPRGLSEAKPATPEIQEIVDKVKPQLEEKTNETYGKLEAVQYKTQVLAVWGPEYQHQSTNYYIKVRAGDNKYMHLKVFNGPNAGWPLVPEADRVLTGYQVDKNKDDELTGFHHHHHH" recorded_result=0.47
binder="HSA-36 (designed binder) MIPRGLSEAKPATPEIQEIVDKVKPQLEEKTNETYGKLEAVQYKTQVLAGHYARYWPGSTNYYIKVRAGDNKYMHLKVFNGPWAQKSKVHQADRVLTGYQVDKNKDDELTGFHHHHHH" recorded_result=687

Could you now consider this next binder?
Memo: HSA-41 (designed binder, also called HSA-41 parent; HSA-41 AH parent) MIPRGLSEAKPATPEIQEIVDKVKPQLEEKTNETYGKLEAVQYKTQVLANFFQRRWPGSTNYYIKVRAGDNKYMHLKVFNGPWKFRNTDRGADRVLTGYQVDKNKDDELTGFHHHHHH , reported EC50: 0.05

From: patent US20230272011A1
